- Experimental Target: UniProt:P21453
- Test Name: S1P-1 β-Arrestin recruitment assay
- Experimental Setup: CHO-K1 EDG1 β-Arrestin cells, chemi-luminescence
Counter-ions that a name gives are not always drawn.
Metric Name: EC50

Consider the reported EC50 for these compounds:
## Task // map Cc1c(-c2noc(-c3ccc(OC(C)C)c(Cl)c3)n2)ccc2c1CCN(CC(=O)NC(CO)CO)C2 [Example 193, hydrochloride] to recorded EC50 (system: UniProt:P21453)
## Result ≤ 10 nM

## Task // map COCCN1CCc2c(ccc(-c3noc(-c4ccc(OC(C)C)c(C#N)c4)n3)c2C)C1 [Example 9] to recorded EC50 (system: UniProt:P21453)
## Result ≤ 100 nM

## Task // map Cc1c(-c2noc(-c3ccc(OC(C)C)c(C#N)c3)n2)ccc2c1CCN(C(=O)[C@@](C)(N)CO)C2 [Example 82] to recorded EC50 (system: UniProt:P21453)
## Result ≤ 100 nM

## Task // map CC(C)Oc1ccc(-c2nc(-c3ccc4c(c3)CCN(CC(=O)NCCO)CC4)no2)cc1C#N [Example 111, hydrochloride] to recorded EC50 (system: UniProt:P21453)
## Result ≤ 10 nM

## Task // map CC(C)Oc1ccc(-c2nc(-c3ccc4c(c3)CCN(C(=O)CNC[C@H](O)CO)CC4)no2)cc1C#N [Example 196, hydrochloride] to recorded EC50 (system: UniProt:P21453)
## Result ≤ 100 nM

Give measured EC50 for every item shown.
1. CC(C)Oc1ccc(-c2nnc(-c3ccc4c(c3)CCN(CCC(N)=O)C4)s2)cc1C#N [Example 47]
2. Cc1c(-c2noc(-c3ccc(OC(C)C)c(C#N)c3)n2)ccc2c1CCN(CC(=O)NC[C@H](C)O)CC2 [Example 148]
3. CC(C)Oc1ccc(-c2nc(-c3cccc4c3CCN(C(=O)[C@H](N)CO)C4)no2)cc1C#N [Example 90, hydrochloride]

## Result
1: ≤ 100 nM; 2: ≤ 10 nM; 3: ≤ 100 nM

Give measured EC50 for every item shown.
1. Cc1c(-c2noc(-c3cnc(OC(C)C)c(C#N)c3)n2)ccc2c1CCN(C(CO)CO)C2 [Example 134, hydrochloride]
2. Cc1c(-c2noc(-c3ccc(OC(C)C)c(C#N)c3)n2)ccc2c1CCN(CC(=O)N[C@@H](C)CO)C2 [Example 119, hydrochloride]
3. CNC(=O)CCCN1CCc2ccc(-c3noc(-c4ccc(OC(C)C)c(C#N)c4)n3)cc2CC1 [Example 24]
4. Cc1c(-c2noc(-c3ccc(OC(C)C)c(C#N)c3)n2)ccc2c1CCN(CC(=O)NC[C@H](O)CO)C2 [Example 124, hydrochloride]
5. Cc1c(-c2noc(-c3cnc(OC(C)C)c(C#N)c3)n2)ccc2c1CCN(C[C@H](O)CO)C2 [Example 132]
6. CC(C)Oc1ccc(-c2nc(-c3ccc4c(c3)CCN(CC(=O)N[C@@H](C)CO)CC4)no2)cc1C#N [Example 80, hydrochloride]

## Result
1. ≤ 10 nM
2. ≤ 10 nM
3. ≤ 10 nM
4. ≤ 10 nM
5. ≤ 100 nM
6. ≤ 10 nM

---

- Experimental Target: UniProt P21453
- Test Name: S1P-1 β-Arrestin recruitment assay
- Experimental Setup: CHO-K1 EDG1 β-Arrestin cells, chemi-luminescence
pEC50: −log10 of the molar value. Where a name gives a salt, the structure may show the parent alone.
Metric Name: pEC50

Consider the reported pEC50 for these molecules:
## Task Quick check: pEC50 of CC(C)Oc1ccc(-c2nc(-c3ccc4c(c3)CCN(C(=O)CN)CC4)no2)cc1C#N [Example 48, trifluoroacetate] ?
## Result ≥ 8.00

## Task Quick check: pEC50 of Cc1c(-c2noc(-c3ccc(OC(C)C)c(C#N)c3)n2)ccc2c1CCN(C(CO)CO)CC2 [Example 156, hydrochloride] ?
## Result ≥ 8.00

## Task Quick check: pEC50 of CC(C)Oc1ccc(-c2nc(-c3cccc4c3CCN(C[C@@H](O)CO)C4)no2)cc1C#N [Example 178, hydrochloride] ?
## Result ≥ 8.00

## Task Quick check: pEC50 of "Cc1c(-c2noc(-c3ccc(OC(C)C)c(C#N)c3)n2)ccc2c1CCN(CC(=O)N[C@H](C)CO)CC2" ?
## Result ≥ 8.00

## Task Quick check: pEC50 of "Cc1c(-c2noc(-c3ccc(OC(C)C)c(C#N)c3)n2)ccc2c1CCN(CCC(=O)N(C)C)C2" ?
## Result ≥ 7.00

## Task Quick check: pEC50 of Cc1c(-c2noc(-c3ccc(OC(C)C)c(C#N)c3)n2)ccc2c1CCN(C(=O)CNC(CO)CO)C2 [Example 127, hydrochloride] ?
## Result ≥ 8.00

## Task Quick check: pEC50 of Cc1c(-c2noc(-c3ccc(OC(C)C)c(C#N)c3)n2)ccc2c1CCN(C(=O)CNCC(O)CO)CC2 (stereo not shown) ?
## Result ≥ 8.00

## Task Quick check: pEC50 of "Cc1c(-c2noc(-c3ccc(OC(C)C)c(C#N)c3)n2)ccc2c1CCN(CCCO)C2" ?
## Result ≥ 8.00

Give measured pEC50 for every item shown.
1. Cc1c(-c2noc(-c3ccc(OC(C)C)c(C#N)c3)n2)ccc2c1CCN(CC(=O)N1CC(O)C1)C2 [Example 123, hydrochloride]
2. Cc1c(-c2noc(-c3cnc(OC(C)C)c(Cl)c3)n2)ccc2c1CCN(C(CO)CO)C2
3. Cc1c(-c2noc(-c3ccc(OC(C)C)c(C#N)c3)n2)ccc2c1CCN(C(=O)CNC[C@@H](C)O)C2 [Example 129, hydrochloride]
4. Cc1c(-c2nnc(-c3ccc(OC(C)C)c(Cl)c3)s2)ccc2c1CCN(C(CO)CO)C2 [Example 203, hydrochloride]
5. Cc1c(-c2noc(-c3ccc(OC(C)C)c(C#N)c3)n2)ccc2c1CCN(C(CO)CO)C2
6. CC(C)Oc1ccc(-c2nc(-c3ccc4c(c3)CCN(CC(=O)NCCCO)CC4)no2)cc1C#N
7. CC(C)Oc1ccc(-c2nc(-c3ccc4c(c3)CCN(C(=O)[C@@](C)(N)CO)CC4)no2)cc1C#N
8. Cc1c(-c2noc(-c3ccc(OC(C)C)c(Cl)c3)n2)ccc2c1CCN(CC(=O)NC[C@H](O)CO)C2 [Example 192, hydrochloride]

## Result
1. ≥ 8.00
2. ≥ 7.00
3. ≥ 8.00
4. ≥ 7.00
5. ≥ 8.00
6. ≥ 8.00
7. ≥ 7.00
8. ≥ 8.00

Give measured pEC50 for every item shown.
1. CC(C)Oc1ncc(-c2nc(-c3ccc4c(c3)CCN(C(=O)[C@@H](N)[C@@H](C)O)CC4)no2)cc1C#N [Example 77, hydrochloride]
2. Cc1c(-c2noc(-c3ccc(OC(C)C)c(C#N)c3)n2)ccc2c1CCN(C[C@@H](O)CO)C2 [Example 73, hydrochloride]
3. Cc1c(-c2noc(-c3ccc(OC(C)C)c(C#N)c3)n2)ccc2c1CCN(C(=O)[C@H](N)[C@@H](C)O)C2
4. Cc1c(-c2noc(-c3ccc(OC(C)C)c(C#N)c3)n2)ccc2c1CCN(CC(=O)N[C@H](C)CO)C2 [Example 118, hydrochloride]
5. CC(C)Oc1ccc(-c2nc(-c3ccc4c(c3)CCN(C[C@H](O)CO)CC4)no2)cc1C#N
6. CCNC(=O)CCCN1CCc2ccc(-c3noc(-c4ccc(OC(C)C)c(C#N)c4)n3)cc2CC1
7. CC(C)Oc1ccc(-c2nc(-c3ccc4c(c3)CCN(C(C)C(=O)N[C@H](C)CO)CC4)no2)cc1C#N (stereo partly shown) [Example 162, hydrochloride]

## Result
1: ≥ 7.00; 2: ≥ 8.00; 3: ≥ 7.00; 4: ≥ 8.00; 5: ≥ 8.00; 6: ≥ 8.00; 7: ≥ 7.00

Give measured pEC50 for every item shown.
1. CC(C)Oc1ccc(-c2nc(-c3ccc4c(c3)CCN(C(C)C(=O)NCCO)CC4)no2)cc1C#N (stereo not shown) [Example 161, hydrochloride]
2. CC(C)Oc1ccc(-c2nc(-c3ccc4c(c3)CCN(CCCC(N)=O)CC4)no2)cc1C#N
3. Cc1c(-c2noc(-c3ccc(OC(C)C)c(C#N)c3)n2)ccc2c1CCN(CC(=O)NC(CO)CO)CC2
4. CCOc1ncc(-c2nc(-c3ccc4c(c3)CCN(C[C@H](O)CO)CC4)no2)cc1C#N
5. Cc1c(-c2noc(-c3ccc(OC(C)C)c(C#N)c3)n2)ccc2c1CCN(C[C@@H](O)CO)CC2 [Example 154, hydrochloride]

## Result
1. ≥ 7.00
2. ≥ 8.00
3. ≥ 8.00
4. ≥ 7.00
5. ≥ 7.00

---

Kindly supply the reported pEC50 values for the records listed here.
- Experimental Target: S1P1 receptor (S1P1 expressing RH7777 membranes) (Homo sapiens, UniProt P21453)
- Construct: expressed in transfected cells; host or cells: RH7777 cells (membranes)
- Sequence (P21453 whole entry): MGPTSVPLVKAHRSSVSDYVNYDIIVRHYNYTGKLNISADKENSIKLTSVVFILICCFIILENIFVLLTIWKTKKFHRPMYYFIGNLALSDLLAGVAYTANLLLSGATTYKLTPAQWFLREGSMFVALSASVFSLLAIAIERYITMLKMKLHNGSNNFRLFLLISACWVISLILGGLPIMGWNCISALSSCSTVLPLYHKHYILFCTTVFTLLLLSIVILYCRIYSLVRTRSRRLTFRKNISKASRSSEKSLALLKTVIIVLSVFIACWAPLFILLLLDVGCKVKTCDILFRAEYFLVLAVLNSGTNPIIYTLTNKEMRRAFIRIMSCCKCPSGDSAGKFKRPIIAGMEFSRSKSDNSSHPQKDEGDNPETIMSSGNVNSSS
- Test Name: S1P1 GTPγS assay
- Assay type: biochemical
- Experimental Setup: tested in one of the above S1P1 assays (two GTPγS formats)
- Description: The potencies and efficacies of the compounds of this invention for the S1P1 receptor can be determined by GTPγS assay performed on the human cloned receptor as described herein. Membrane preparation for S1P1 GTPγS assay All steps were performed at 4° C. Cells were homogenised within a glass Waring blender for 2 bursts of 15 secs in 200 mls of buffer (50 mM HEPES, 1 mM leupeptin, 25 μg/ml bacitracin, 1 mM EDTA, 1 mM PMSF, 2 μM pepstatin A). […]
pEC50: −log10 of the molar value. Where a name gives a salt, the structure may show the parent alone.

Consider the reported pEC50 for these compounds:
## Task // map Cc1c(-c2noc(-c3ccc(OC(C)C)c(C#N)c3)n2)ccc2c1CCN(C[C@H](O)CO)CC2 [Example 153, hydrochloride] to recorded pEC50 (system: S1P1 receptor (S1P1 expressing RH7777 membranes) (Homo sapiens, UniProt P21453))
## Result ≥ 7.00

## Task // map "Cc1c(-c2noc(-c3ccc(OC(C)C)c(C#N)c3)n2)ccc2c1CCN(CC(=O)NCCO)CC2" to recorded pEC50 (system: S1P1 receptor (S1P1 expressing RH7777 membranes) (Homo sapiens, UniProt P21453))
## Result ≥ 7.00

## Task // map CCCNc1ncc(-c2nc(-c3ccc4c(c3)CCN(C[C@H](O)CO)CC4)no2)cc1C#N [Example 143, hydrochloride] to recorded pEC50 (system: S1P1 receptor (S1P1 expressing RH7777 membranes) (Homo sapiens, UniProt P21453))
## Result ≥ 6.00

## Task // map "Cc1c(-c2noc(-c3cnc(OC(C)C)c(C#N)c3)n2)ccc2c1CCN(C[C@@H](O)CO)C2" to recorded pEC50 (system: S1P1 receptor (S1P1 expressing RH7777 membranes) (Homo sapiens, UniProt P21453))
## Result ≥ 7.00

Give measured pEC50 for every item shown.
1. CC(C)Oc1ncc(-c2nc(-c3ccc4c(c3)CCN(CC(O)CO)CC4)no2)cc1C#N (stereo in doubt)
2. Cc1c(-c2noc(-c3ccc(OC(C)C)c(C#N)c3)n2)ccc2c1CCN(C(=O)CN)CC2 [Example 140, hydrochloride]
3. CC(C)Oc1ccc(-c2nnc(-c3cccc4c3CCN(CCC(=O)N(C)C)C4)s2)cc1C#N
4. CC(C)Oc1ccc(-c2nc(-c3ccc4c(c3)CCN(CC(=O)N[C@H](C)CO)CC4)no2)cc1C#N [Example 78, hydrochloride]
5. CC(C)Oc1ccc(-c2nc(-c3ccc4c(c3)CCN(CC(=O)NC[C@H](C)O)CC4)no2)cc1C#N [Example 75, hydrochloride]
6. CC(C)Oc1ccc(-c2nc(-c3ccc4c(c3)CCN(C(=O)CCCN)CC4)no2)cc1C#N

## Result
≥ 7.00
≥ 7.00
≥ 6.00
≥ 6.00
≥ 7.00
≥ 7.00

Give measured pEC50 for every item shown.
1. CC(C)Oc1ccc(-c2nc(-c3ccc4c(c3)CCN(C[C@@H](O)CO)CC4)no2)cc1C#N
2. CNC(=O)CCCN1CCc2c(ccc(-c3nnc(-c4ccc(OC(C)C)c(C#N)c4)s3)c2C)C1
3. CCCNc1ccc(-c2nc(-c3ccc4c(c3)CCN(C(=O)CN)CC4)no2)cc1C#N
4. N#Cc1cc(-c2nc(-c3ccc4c(c3)CCN(CC(O)CO)CC4)no2)ccc1N1CC(F)C1 (stereo not drawn)

## Result
["≥ 7.00", "≥ 6.00", "≥ 7.00", "< 5.00"]

## Task // map CC(C)Nc1ccc(-c2nc(-c3ccc4c(c3)CCN(CC(O)CO)CC4)no2)cc1C#N (stereo not drawn) to recorded pEC50 (system: S1P1 receptor (S1P1 expressing RH7777 membranes) (Homo sapiens, UniProt P21453))
## Result ≥ 7.00
